The reported measurements were obtained from patent US20230381142A1.

Record form. Attribute: CC50 at 72 h. Fill in for each entry.
- measurement description: UCSD infection assay, host cell cytotoxicity (CC50)
- Assay type: cell-based
- condition info: mouse, B10R host cells infected with L. donovani; host B10R cells
API: value field is a number in µM; no unit string.

IN: Any idea what CC50 at 72 h was measured for COc1ccc(N2C(=O)c3[nH]nc(CC(C)C)c3C2c2ccccc2Cl)nc1 (stereo not shown) [BUCMD00647] ?
OUT: 10

IN: // repeat for Cc1ccc(N2C(=O)c3[nH]nc(CC(C)C)c3C2c2ccccc2Cl)cn1 (stereo not shown) [BUCMD00640] and report
OUT: 12.6

IN: // repeat for CC(C)Cc1n[nH]c2c1C(c1ccc(Cl)cc1Cl)N(c1ccc(C(=O)N3CCCC3)cc1)C2=O (stereo not shown) [BUCMD00712] and report
OUT: 1.58

IN: // repeat for CC(C)Cc1n[nH]c2c1C(c1ccccc1Br)N(c1ccc3c(c1)OCC(=O)N3)C2=O (stereo not shown) [CMLD011497] and report
OUT: 6.31

IN: // repeat for CC(C)Cc1n[nH]c2c1C(c1ccc(F)cc1Cl)N(c1ccc(N3CCN(C)CC3)nc1)C2=O (stereo not shown) [BUCMD00718] and report
OUT: 6.31

IN: // repeat for Cc1ccccc1C1c2c(CC(C)C)n[nH]c2C(=O)N1c1ccc(C(=O)N2CCCC2)cc1 (stereo not shown) [BUCMD00713] and report
OUT: 10

IN: // repeat for COc1ccc(N2C(=O)c3[nH]nc(CC(C)C)c3[C@H]2c2ccc(F)cc2)cc1 [CMLD013629] and report
OUT: 20

IN: // repeat for CC(C)Cc1n[nH]c2c1C(c1ccccc1F)N(c1ccc(N3CCN(C)CC3)nc1)C2=O (stereo not shown) [BUCMD00724] and report
OUT: 6.31

IN: // repeat for CC(C)Cc1n[nH]c2c1C(c1ccc(F)c(F)c1)N(c1ccc(N3CCN(C)CC3)nc1)C2=O (stereo not shown) [BUCMD00725] and report
OUT: 7.94

IN: // repeat for CC(C)Cc1n[nH]c2c1C(c1ccccc1F)N(c1cncc(F)c1)C2=O (stereo not shown) [BUCMD00700] and report
OUT: 10
